Read-out: Protein phosphatase 2A (PPP2R4), PTPA (gene 5524)
ASSAY EXPLANATION: LTEA_HepaRG_PPP2R4: Life Technologies and Expression Analysis (LTEA) Assay for Protein phosphatase 2A (PPP2R4) using HepaRG (AID 2283522)
MEASUREMENT CONTEXT: mRNA level, 48 h; actives raise or lower the signal
Activity calls are given as the source filed them. Rule for the calls: active = hit-call score of the fitted dose curve at least 0.9, where 1 is the maximum; inactive = score below 0.9.
I would appreciate it if you answered using one of these outcomes: T for active, F for inactive

Outcome? O=C(c1ccc(OCCN2CCCCC2)cc1)c1c(-c2ccc(O)cc2)sc2cc(O)ccc12
T

Outcome? CCCCOCCOCCO
F

Outcome? C[C@]12CC[C@@H]3c4ccc(O)cc4CC[C@H]3[C@@H]1CC[C@@H]2O
F

Outcome? COC(=O)c1ccc(C(=O)OC)cc1
F
